meta.source: ChEMBL document CHEMBL1155348

assay: Cytotoxicity against african green monkey Vero cells after 72 hrs by SRB assay; type: cell-based; conditions: chlorocebus sabaeus
For each record, write down the corresponding CC50 at 72 h.
Numbers only, in µM.

Here is how some compounds turned out for CC50 at 72 h.
{"STRUCTURE AS SMILES": "O=C(N/N=C/c1ccccc1)c1cc2c([nH]c3ccccc32)c(-c2ccc(O)cc2)n1", "UNITS LABEL": "µM", "OBSERVED VALUE": 1240}
{"STRUCTURE AS SMILES": "O=C(N/N=C/c1ccccc1)c1cc2c([nH]c3ccccc32)c(-c2ccccc2)n1", "UNITS LABEL": "µM", "OBSERVED VALUE": 777}
{"STRUCTURE AS SMILES": "COc1ccc(/C=N/NC(=O)c2cc3c([nH]c4ccccc43)c(-c3ccccc3)n2)cc1", "UNITS LABEL": "µM", "OBSERVED VALUE": 1150}
{"STRUCTURE AS SMILES": "CN(C)c1ccc(/C=N/NC(=O)c2cc3c([nH]c4ccccc43)c(-c3ccccc3)n2)cc1", "UNITS LABEL": "µM", "OBSERVED VALUE": 1160}

Let's switch to this compound now.
Return the recorded CC50 at 72 h value; entry: CN(C)c1ccc(/C=N/NC(=O)c2cc3c([nH]c4ccccc43)c(-c3ccc(O)cc3)n2)cc1
900

====

I'd appreciate it if you could supply CC50 at 72 h values for the items below.
experiment: Cytotoxicity against african green monkey Vero cells after 72 hrs by SRB assay; assay type: cell-based; details: chlorocebus sabaeus
Give bare numbers, in µM.

Here is how some molecules turned out for CC50 at 72 h.
{"STRUCTURE AS SMILES": "CN(C)c1ccc(/C=N/NC(=O)c2cc3c([nH]c4ccccc43)c(-c3cccc([N+](=O)[O-])c3)n2)cc1", "OBSERVED VALUE": 1050}
{"STRUCTURE AS SMILES": "COc1ccc(/C=N/NC(=O)c2cc3c([nH]c4ccccc43)c(-c3ccc(O)cc3)n2)cc1", "OBSERVED VALUE": 803}
{"STRUCTURE AS SMILES": "O=C(N/N=C/c1ccc([N+](=O)[O-])cc1)c1cc2c([nH]c3ccccc32)c(-c2ccc(O)cc2)n1", "OBSERVED VALUE": 200}

// below: CC50 at 72 h requested for another molecule
Quick one: give measured CC50 at 72 h for O=C(N/N=C/c1ccccc1Cl)c1cc2c([nH]c3ccccc32)c(-c2ccc(O)cc2)n1
29.8

====

system: Enterovirus C; assay: Antiviral activity against Poliovirus infected in african green monkey Vero cells by SRB assay; format: functional, organism-based
MEASURED ATTRIBUTE: pEC50
Give bare numbers, as −log10 of the molar value.

{"STRUCTURE AS SMILES": "O=C(N/N=C/c1ccccc1)c1cc2c([nH]c3ccccc32)c(-c2ccc(O)cc2)n1", "TARGET UNDER TEST": "Enterovirus C", "OBSERVED VALUE": 5.99}

Identify the reported pEC50 for the following entry. CN(C)c1ccc(/C=N/NC(=O)c2cc3c([nH]c4ccccc43)c(-c3ccccc3)n2)cc1
6.06
